viability at 28.5 h, 10 µM values, listed per item
experiment: in vitro; conditions: human, hela cells, % viability

COMPOUND	viability at 28.5 h, 10 µM [%]
CC1Cc2cc(C(=O)N3CCCCC3CCN3CCCC3)ccc2O1 (centres unmarked)	100
OCCNCCOc1ccc(Cl)cc1Br [CBK265083G]	116
O=S(=O)(Nc1cccc(-c2nnn[nH]2)c1)c1cc(Br)c(Cl)s1	102
CCOc1ccc(CN(C)C(=O)Nc2cc(C)on2)cc1	101
FC(F)c1cc(-c2ccccc2)n2ncnc2n1	87.3
Cc1ccccc1Nc1nc(N)nc(CN2CCOC3CCCC32)n1 (centres unmarked)	97.6
COc1ccc(Sc2cc(C(F)(F)F)ccn2)cc1OC	92.5
CC(C)c1cccc(C(C)C)c1OCCNCCO	89.3
CC(C)NC(=O)Cn1c(=O)n(Cc2cccs2)c2ncccc21	83.6
COc1ccc2nc(Nc3nc(C)c(C(C)=O)s3)sc2c1	94.8
O=C1NC2(CCN(C(=O)Cc3ccc(-c4ccccc4)cc3)CC2)Nc2ccccc21	101
CCNC(=O)Nc1nc2cccnc2cc1-c1ccc(OC)c(C)c1	94.6
Cc1nnc(N2C(=O)c3oc4ccc(Cl)cc4c(=O)c3C2c2cccc(OCc3ccccc3)c2)s1 (centres unmarked)	95
O=S(=O)(N1CCOCC1)N1CCN(CC(O)COc2ccc3cc(Br)ccc3c2)CC1 (centres unmarked)	103
CCOc1ccc(S(=O)(=O)NC(C)C(=O)O)cc1C (centres unmarked)	114
CCCC/C=C/c1cncc(N2CCN(c3ccccn3)CC2)n1	117
CC(Nc1ncnc2c1cnn2C)c1ccccc1 (centres unmarked)	106
Cc1ccc2cc(C)c3nn(CC(=O)NC4CC4)c(=O)n3c2c1C	83.8
COc1ccc(S(=O)(=O)NCCCn2ccnc2)cc1Cl	97.2
O=S(=O)(Nc1nccnc1-c1ccc2c(c1)OCO2)c1cccc(Cl)c1	92.4
